test system: IGROV-1; assay: Growth inhibition of human IGROV1 cells after 48 hrs; format: functional; details: IGROV-1, 48 h, read-out: pTGI (converted)
metric: TGI (µM)
Field: numeric (µM). Do not append units.

COc1ccc(N(CC(=O)NCCC[Te]c2ccccc2)C(=O)c2ccccc2)cc1    8.32
COc1ccc(N(CC(=O)NCCC[Te]c2ccccc2)C(=O)CNC(=O)OC(C)(C)C)cc1    5.37
COc1ccc(N(CC(=O)NCCC[Te]c2ccccc2)C(=O)CCSC2=C(C)C(=O)c3ccccc3C2=O)cc1    2.19

Turning now to a further compound:
compound CC1=C(SCCC(=O)OCC(=O)NCCC[Te]c2ccccc2)C(=O)c2ccccc2C1=O , TGI observed: 6.46
